Values were extracted from patent US8044198B2.

Target: SIRT1 (Homo sapiens, UniProt Q96EB6)
Experiment: SIRT1 mass spectrometry (MS) based deacetylation assay
Assay type: biochemical
Details: SIRT1 activation, mass spectrometry assay; read-out: ED50 MS ASSAY
Assign EC50 to each entry below.

Known results for compounds:
{"query.smiles": "COc1ccc(C(=O)Nc2cc(CN3CCNCC3)cc(-c3nc4ncccc4o3)c2)c(OC)c1", "target.or.system": "SIRT1 (Homo sapiens, UniProt Q96EB6)", "EC50": "5 to 50 µM"}
{"query.smiles": "COc1ccc(C(=O)Nc2cccc(-c3cc4cccnc4o3)c2)c(OC)c1", "target.or.system": "SIRT1 (Homo sapiens, UniProt Q96EB6)", "EC50": "< 5 µM"}
{"query.smiles": "COc1ccc(C(=O)Nc2ncccc2-c2nc3ccccc3[nH]2)cc1OC", "target.or.system": "SIRT1 (Homo sapiens, UniProt Q96EB6)", "EC50": "< 5 µM"}

Here's the next entry for you.
What EC50 value was documented for this compound, COc1ccc(C(=O)Nc2ccc(-c3nc4cnccc4o3)s2)cc1OC ?
< 5 µM

----------
What EC50 was measured for each of the following?
Biological target: SIRT1 (Homo sapiens)
Assay: SIRT1 mass spectrometry (MS) based deacetylation assay
Type: biochemical
Settings: Sirt1 activators; mass spectrometry assay; read-out: ED50 MS ASSAY

For orientation, consider the following solved cases.
{"query.smiles": "COc1ccc(NC(=S)Nc2cccc(-c3nc4ccncc4s3)c2)cc1OC", "measurement.label": "EC50", "data.value": "> 150 µM"}
{"query.smiles": "CS(=O)(=O)Nc1cccc(C(=O)Nc2cc(-c3nc4ncccc4o3)ccn2)c1", "measurement.label": "EC50", "data.value": "5 to 50 µM"}

Look up EC50 for the entries below, preserving their order.
1. COc1cc(C(=O)Nc2cc(-c3nc4ncccc4o3)ccn2)ccc1CN1CCCCC1
2. COc1cc(C(=O)Nc2ccccc2-c2nc3cccnc3[nH]2)ccc1CN1CCNCC1
3. O=C(Nc1ccccc1-c1nc2cccnc2[nH]1)c1cccc(OC(F)(F)F)c1
4. CCn1ccc(C(=O)Nc2cc(-c3nc4ncccc4o3)ccn2)n1
5. O=C(Nc1ccccc1-c1cn2c(n1)CCCC2)c1ccc2ccccc2n1
6. COc1ccc(C(=O)Nc2ccccc2-c2nc3cccnc3[nH]2)cc1C(F)(F)F
7. COc1cc(OC)cc(C(=O)Nc2ccc(-c3nc4ccncc4o3)s2)c1
8. CN(C)c1cccc(C(=O)Nc2ccc(-c3nc4cnccc4s3)s2)c1

1. 5 to 50 µM
2. 5 to 50 µM
3. < 5 µM
4. > 150 µM
5. < 5 µM
6. < 5 µM
7. < 5 µM
8. < 5 µM

----------
Molecular target: SIRT1 (Homo sapiens)
Assay: SIRT1 mass spectrometry (MS) based deacetylation assay
Format: biochemical
Conditions: SIRT1 activation, mass spectrometry assay; read-out: ED50 MS ASSAY
Field: EC50. Provide a value for each of the compounds that follow.

Example cases with answers are listed next.
{"compound": "CN(C)c1ccc(C(=O)Nc2cccc(-c3nc4cnccc4s3)c2)cc1 [Compound 403]", "EC50": "< 5 µM"}
{"compound": "COc1ccc(C(=O)Nc2ccccc2-c2nc3cnccc3o2)c(OC)c1OC [Compound 421]", "EC50": "5 to 50 µM"}
{"compound": "COc1ccc(C(=O)Nc2ccccc2-c2nc3ccncc3o2)c(OC)c1 [Compound 455]", "EC50": "< 5 µM"}
{"compound": "CN(C)c1cccc(C(=O)Nc2ccc(-c3nc4ccncc4o3)cc2)c1 [Compound 408]", "EC50": "51 to 100 µM"}
{"compound": "COc1cc(C(=O)Nc2cccc(-c3nc4cccnc4s3)c2)cc(OC)c1OC [Compound 217]", "EC50": "< 5 µM"}
{"compound": "O=C(Nc1ccccc1-c1cn2c(CN3CCNCC3)csc2n1)c1cccc(OC(F)(F)F)c1 [Compound 698]", "EC50": "< 5 µM"}
{"compound": "O=C(Nc1ccccc1-c1cn2c(CN3CCNCC3)csc2n1)c1cnc2ccccc2n1 [Compound 441]", "EC50": "< 5 µM"}

The record that follows has no EC50 shown yet.
Which EC50 reading was recorded for the compound CN(C)c1cccc(C(=O)Nc2ccccc2-c2nc3cc(CN4CCOCC4)cnc3s2)c1 [Compound 686] ?
< 5 µM

----------
Biological target: SIRT1 (Homo sapiens, UniProt Q96EB6)
Sequence (Q96EB6 1-747): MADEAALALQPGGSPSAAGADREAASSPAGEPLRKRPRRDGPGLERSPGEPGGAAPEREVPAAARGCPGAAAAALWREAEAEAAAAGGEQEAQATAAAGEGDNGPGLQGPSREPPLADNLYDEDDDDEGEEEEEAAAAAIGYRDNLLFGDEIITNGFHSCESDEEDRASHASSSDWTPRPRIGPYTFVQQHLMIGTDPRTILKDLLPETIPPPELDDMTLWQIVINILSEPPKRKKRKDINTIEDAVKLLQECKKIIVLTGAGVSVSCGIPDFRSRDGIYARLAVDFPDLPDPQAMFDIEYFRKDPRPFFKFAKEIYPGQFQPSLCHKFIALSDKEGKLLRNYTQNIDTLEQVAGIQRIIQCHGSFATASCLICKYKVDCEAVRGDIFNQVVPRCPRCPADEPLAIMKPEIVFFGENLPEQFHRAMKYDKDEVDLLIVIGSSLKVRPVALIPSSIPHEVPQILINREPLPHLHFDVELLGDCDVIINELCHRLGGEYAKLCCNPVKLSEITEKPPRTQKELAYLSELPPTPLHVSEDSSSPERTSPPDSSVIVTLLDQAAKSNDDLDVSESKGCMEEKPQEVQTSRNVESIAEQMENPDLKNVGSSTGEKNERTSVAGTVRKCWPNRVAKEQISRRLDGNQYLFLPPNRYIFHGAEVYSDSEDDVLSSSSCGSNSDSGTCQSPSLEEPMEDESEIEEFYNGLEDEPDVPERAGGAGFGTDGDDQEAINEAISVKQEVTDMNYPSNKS
Experiment: SIRT1 mass spectrometry (MS) based deacetylation assay
Format: biochemical
Details: SIRT1 activation, mass spectrometry assay; read-out: ED50 MS ASSAY
measurement.label: EC50

I have 5 compounds here; please give me EC50 for each one.
1. O=C(Nc1cccc(-c2nc3ncccc3o2)c1)c1ccccc1N1CCOCC1 [Compound 109]
2. COc1ccc(C(=O)Nc2ccccc2-c2nc3cnccc3s2)c(OC)c1 [Compound 317]
3. COc1cc(C(=O)Nc2ccc(-c3nc4cnccc4o3)cc2)cc(OC)c1OC [Compound 347]
4. COc1cc(C(=O)Nc2cccc(-c3cn4cccc(C)c4n3)c2)cc(OC)c1OC [Compound 131]
5. COc1cc(C)ccc1C(=O)Nc1ccc(-c2nc3cccnc3[nH]2)cc1 [Compound 149]

5 to 50 µM
< 5 µM
< 5 µM
5 to 50 µM
< 5 µM

Would you mind giving EC50 for every compound in the list below?
1. COc1cc(OC)cc(C(=O)Nc2ccc(-c3nc4cnccc4s3)cc2)c1 [Compound 323]
2. COc1ccc(C(=O)Nc2cccc(-c3nc4ccccc4[nH]3)n2)cc1OC [Compound 260]

1: 5 to 50 µM; 2: < 5 µM

Count: 2. Required value per item: EC50.
1. CN(C)c1cccc(C(=O)Nc2ccccc2-c2nc3ncccc3o2)c1 [Compound 97]
2. COc1ccccc1C(=O)Nc1cccc(-c2cn3ccsc3n2)c1 [Compound 132]

1: < 5 µM; 2: 5 to 50 µM

----------
Target: SIRT1 (Homo sapiens, UniProt Q96EB6)
Sequence (Q96EB6 1-747): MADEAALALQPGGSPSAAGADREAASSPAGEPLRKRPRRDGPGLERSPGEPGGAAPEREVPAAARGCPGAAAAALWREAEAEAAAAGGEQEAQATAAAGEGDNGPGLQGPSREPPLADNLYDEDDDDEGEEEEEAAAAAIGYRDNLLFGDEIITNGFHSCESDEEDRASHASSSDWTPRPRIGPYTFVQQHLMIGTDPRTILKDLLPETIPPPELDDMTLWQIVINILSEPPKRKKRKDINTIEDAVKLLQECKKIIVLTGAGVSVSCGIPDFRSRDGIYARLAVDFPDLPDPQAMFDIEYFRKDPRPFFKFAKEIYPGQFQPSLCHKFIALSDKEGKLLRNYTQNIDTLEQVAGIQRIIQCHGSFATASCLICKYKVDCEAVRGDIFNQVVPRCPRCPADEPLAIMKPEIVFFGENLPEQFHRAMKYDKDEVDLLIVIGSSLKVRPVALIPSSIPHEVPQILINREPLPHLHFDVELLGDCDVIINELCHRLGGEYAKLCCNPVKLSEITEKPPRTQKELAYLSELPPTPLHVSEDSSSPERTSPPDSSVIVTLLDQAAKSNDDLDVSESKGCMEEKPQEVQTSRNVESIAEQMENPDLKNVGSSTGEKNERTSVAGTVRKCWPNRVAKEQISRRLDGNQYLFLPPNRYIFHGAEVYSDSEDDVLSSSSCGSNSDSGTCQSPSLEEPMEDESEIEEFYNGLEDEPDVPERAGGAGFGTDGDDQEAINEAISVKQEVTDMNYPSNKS
Experiment: SIRT1 mass spectrometry (MS) based deacetylation assay
Format: biochemical
Settings: SIRT1 activation, mass spectrometry assay; read-out: ED50 MS ASSAY
pEC50: −log10 of the molar value.
measurement.label: pEC50

{"query.smiles": "COc1ccc(C(=O)Nc2cccc(-c3cn4ccc(C)cc4n3)c2)cc1", "target.or.system": "SIRT1 (Homo sapiens, UniProt Q96EB6)", "data.value": "4.30 to 5.30"}

I need pEC50 for every entry listed below, if you could help.
1. CN(C)c1ccc(C(=O)Nc2cccc(-c3nc4ccncc4o3)c2)cc1
2. O=C(Nc1ccccc1-c1nc2ccc(CN3CCNCC3)nc2s1)c1cnc2ccccc2n1
3. COc1cccc(C(=O)Nc2cccc(-c3nc4cccnc4s3)c2)c1
4. COc1cc(C(=O)Nc2ccc(-c3nc4cnccc4o3)s2)cc(OC)c1OC

4.30 to 5.30
> 5.30
4.30 to 5.30
> 5.30
